# experimental-target: AmelOBP2 (Apis mellifera)
# assay-method-text: Fluorescence competitive binding assay with 1-NPN as probe
# Design: species or system Apis mellifera ligustica
# test-conditions: Ki = [IC50]/(1 + [1-NPN]/K1-NPN); read-out: Ki (binding constant)
Hi! Just check whether Ki is below 7 µM. Below gives Y, equal or above gives N.

Worked set:
Data request: Problem: For the compound CCCCCC=CC(C)=O [3-nonen-2-one] , is Ki under 7 µM?
Data returned: Y

Data request: Problem: For the compound CCCCCCCCCCCC=O [dodecanal] , is Ki under 7 µM?
Data returned: Y

Data request: Problem: For the compound CCCCCCCCCCCCCCCCCCC [nonadecane] , is Ki under 7 µM?
Data returned: N

Further cases:
Data request: Problem: For the compound CCCCCCCCCCCCCCCCC [heptadecane] , is Ki under 7 µM?
Data returned: N

Data request: Problem: For the compound CCCCCCCCCC=O [decanal] , is Ki under 7 µM?
Data returned: Y

Data request: Problem: For the compound CCCCCCCCCCCCCCCCCCCCC [heneicosane] , is Ki under 7 µM?
Data returned: N

----------
Assay read-out pIC50; system under study: AmelOBP2 (Apis mellifera, UniProt A0A8U0WQ64).
Sequence (A0A8U0WQ64 entry or part of it): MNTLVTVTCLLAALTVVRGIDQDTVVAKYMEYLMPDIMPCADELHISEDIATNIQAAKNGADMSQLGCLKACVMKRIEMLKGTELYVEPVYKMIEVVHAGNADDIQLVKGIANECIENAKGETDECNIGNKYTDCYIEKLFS
Answers are plain numbers, as −log10 of the molar value.

Here are 3 molecules together with their reported answers.
Data request: Can you look up the measured pIC50 of CCCCCCCCCCCC=O for me?
Data returned: 5.63

Data request: Can you look up the measured pIC50 of C=C(C)C1CCC(C)C(=O)C1 (stereo not drawn) for me?
Data returned: 4.87

Data request: Can you look up the measured pIC50 of CCCCCCCCCCCCCCCC for me?
Data returned: 4.16

Below are some molecules; for each one, tell me its pIC50.
1. CCCCCC=CC(C)=O
2. C=C(C)c1ccc(C)cc1
3. O=CCCc1ccccc1
4. CCCCCCCCCCCCCCCCCCC

Data returned:
[5.02, 4.86, 4.79, 4.48]

Below are some molecules; for each one, tell me its pIC50.
1. Cc1ccc(C)c(C=O)c1
2. CC(C)(C)c1cccc(C(C)(C)C)c1
3. COC(=O)c1ccccc1C(=O)OC [dimethyl phthalate]
4. O=CCc1ccccc1
5. C=C/C(C)=C/CC=C(C)C

Data returned:
1. 4.80
2. 5.20
3. 4.91
4. 4.99
5. 5.08

Below are some molecules; for each one, tell me its pIC50.
1. CCCCCCCCCC=O
2. CC1=CCC(C(C)C)=CC1
3. CC(C)C(=O)OCC(C)(C)C(OC(=O)C(C)C)C(C)C (stereo not drawn)
4. O=Cc1ccccc1

Data returned:
1: 5.08; 2: 5.03; 3: 4.96; 4: 5.08

Below are some molecules; for each one, tell me its pIC50.
1. CCCCCCCCCCCCCCCCCCCCC
2. Cc1ccccc1
3. CC(=O)/C=C/C1=C(C)CCCC1(C)C [trans-β-ionone]
4. O=CC=Cc1ccccc1
5. CCCCCCCCCCCCCCCCC

Data returned:
1: 4.31; 2: 4.73; 3: 5.03; 4: 4.89; 5: 4.43

----------
Assay read-out pKi; system under study: AmelOBP2 (Apis mellifera, UniProt A0A8U0WQ64).
Answers are plain numbers, as −log10 of the molar value.

Data request: Can you look up the measured pKi of O=CCc1ccccc1 for me?
Data returned: 5.34

Data request: Can you look up the measured pKi of Cc1ccccc1 for me?
Data returned: 5.08

Data request: Can you look up the measured pKi of C=C(C)C1CCC(C)C(=O)C1 (stereo not drawn) for me?
Data returned: 5.22

Below are some molecules; for each one, tell me its pKi.
1. COC(=O)c1ccccc1C(=O)OC [dimethyl phthalate]
2. C=C/C(C)=C/CC=C(C)C
3. CCCCC/C=C/C=O
4. O=CC=Cc1ccccc1
5. CCCCCCCCCCCCCC
6. C=CC(C)(O)CCC=C(C)C (stereo not drawn)

Data returned:
[5.26, 5.43, 5.13, 5.24, 5.09, 5.15]

Below are some molecules; for each one, tell me its pKi.
1. Cc1ccc(C(C)C)cc1
2. C=C(C)c1ccc(C)cc1
3. CC1=CCC(C(C)C)=CC1

Data returned:
1: 5.45; 2: 5.21; 3: 5.38
